Experiment: LogP by HPLC on reversed phase columns (EEC directive 79/831 Annex V.A8), method [a]
Format: physicochemical
Conditions: LC-UV, acidic range, 0.1% formic acid in water and acetonitrile as eluent (linear gradient 10% to 95% acetonitrile)
quantityMeasured: LogP[a]

compound	experimentalResult
Cc1c(NC(=O)c2cccnc2C(F)F)cccc1OCc1cccc(F)c1 [Example 40]	3.09
O=C(Nc1cccc(OCc2ccccc2)c1C(F)(F)F)c1cccnc1C(F)F [Example 100]	3.13
CCC(C)Oc1cccc(NC(=O)c2cccnc2C(F)F)c1C (stereo not drawn) [Example 11]	3.02
CCCCC(C)Oc1cccc(NC(=O)c2cccnc2C(F)F)c1C (stereo not drawn) [Example 86]	3.94
Cc1c(NC(=O)c2cccnc2C(F)F)cccc1OCCC(F)(F)F [Example 120]	2.68
CC(Oc1cccc(NC(=O)c2ccc(Cl)nc2C(F)F)c1C(F)(F)F)c1ccccc1 (stereo not drawn) [Example 103]	4.03
Cc1c(NC(=O)c2cccnc2C(F)F)cccc1OC(C)Cc1ccc(Cl)cc1 (stereo not drawn) [Example 67]	3.90
Cc1c(NC(=O)c2cccnc2C(F)F)cccc1OC(C)c1c(F)cccc1F (stereo not drawn) [Example 52]	3.33
Cc1c(NC(=O)c2cccnc2C(F)F)cccc1OC(C)c1ccccc1Cl (stereo not drawn) [Example 50]	3.79

* * *

Assay: LogP by HPLC on reversed phase columns (EEC directive 79/831 Annex V.A8), method [a]
Assay type: physicochemical
Settings: LC-UV, acidic range, 0.1% formic acid in water and acetonitrile as eluent (linear gradient 10% to 95% acetonitrile)
quantityMeasured: LogP[a]

Example entries begin here.
compound	LogP[a]
Cc1c(NC(=O)c2cccnc2C(F)F)cccc1C1CCCCC1(C)C (stereo not shown)	4.31
Cc1c(NC(=O)c2cccnc2C(F)F)cccc1C1CC2CCC1C2 (stereo not shown)	3.80
Cc1c(NC(=O)c2cccnc2C(F)F)cccc1OCc1ccccc1C(F)(F)F	3.55
Cc1c(NC(=O)c2cccnc2C(F)F)cccc1OCCC(C)(C)C	3.85
Cc1c(NC(=O)c2cccnc2C(F)F)cccc1OC(C)c1ccc(Cl)cc1Cl (stereo not shown)	4.41
Cc1c(NC(=O)c2cccnc2C(F)F)cccc1OC(C)COCC(C)C (stereo not shown)	3.55
Cc1c(NC(=O)c2cccnc2C(F)F)cccc1OCc1ncc(C(F)(F)F)cc1Cl	3.23
Cc1c(NC(=O)c2cccnc2C(F)F)cccc1OC1CCCCC1	3.52
O=C(Nc1cccc(-c2ccc(F)cc2F)c1Cl)c1cccnc1C(F)F	3.12
Cc1cnc(C(F)F)c(C(=O)Nc2cccc(OC(C)c3ccccc3)c2C(F)(F)F)c1 (stereo not shown)	3.69

A. Cc1c(NC(=O)c2cccnc2C(F)F)cccc1OC(C)C1CCCC1 (stereo not shown)
B. CC(C)Oc1cccc(NC(=O)c2cccnc2C(F)F)c1C(F)(F)F
Qu. Field: lower LogP[a] | Options: A / B # respond with the chosen item's label
Ans. B
(B: 2.80, A: 4.06)

* * *

Assay: LogP by HPLC on reversed phase columns (EEC directive 79/831 Annex V.A8), method [a]
Assay type: physicochemical
Conditions: LC-UV, acidic range, 0.1% formic acid in water and acetonitrile as eluent (linear gradient 10% to 95% acetonitrile)
quantityMeasured: LogP[a]

Example entries begin here.
compound	LogP[a]
Cc1c(NC(=O)c2cccnc2C(F)F)cccc1OC(C)Cc1cccs1 (stereo not drawn) [Example 72]	3.37
Cc1c(NC(=O)c2cccnc2C(F)F)cccc1OCc1ccccc1Cl [Example 37]	3.41

P. C#CCOCC(C)Oc1cccc(NC(=O)c2cccnc2C(F)F)c1C (stereo not drawn) [Example 21]
Q. CCC(CC)Oc1cccc(NC(=O)c2cccnc2C(F)F)c1C(F)(F)F [Example 92]
Qu. Field: lower LogP[a] | Options: P / Q # respond with the chosen item's label
Ans. P
(P: 2.47, Q: 3.55)

I. Cc1c(NC(=O)c2cccnc2C(F)F)cccc1OC(C)C1CCOC1 (stereo not drawn) [Example 27]
II. Cc1c(NC(=O)c2cccnc2C(F)F)cccc1OCc1cccc(Cl)c1Cl [Example 45]
Qu. Field: lower LogP[a] | Options: I / II # respond with the chosen item's label
Ans. I
